Experiment: Octanol/water partition coefficient, log D of the compound at pH 7.4 by shake-flask method
Type: physicochemical
Measurement label: logD

INSERT INTO results (compound, measurement_label, val) VALUES
  ('C[C@]1(O)CCN(c2nc(N3CCN(CCO)CC3)cc(C(F)(F)F)c2C#N)C1', 'logD', 2.2),
  ('CCc1cc2nc(C(F)(F)F)c(C#N)c(N3CCC(C)(O)C3)c2[nH]1 (racemic)', 'logD', 2.8),
  ('C[C@@]1(O)CCN(c2c(C#N)c(C(F)(F)F)nc3cc[nH]c23)C1', 'logD', 2.1),
  ('C[C@]1(O)CCN(c2nc(N3C[C@H](O)[C@@H](O)C3)cc(C(F)(F)F)c2C#N)C1', 'logD', 2.2),
  ('C[C@]1(O)CCN(c2c(C#N)c(C(F)(F)F)nc3cc[nH]c23)C1', 'logD', 2.2);

* * *

Target: Ketohexokinase (Homo sapiens)
Sequence (P50053 whole entry): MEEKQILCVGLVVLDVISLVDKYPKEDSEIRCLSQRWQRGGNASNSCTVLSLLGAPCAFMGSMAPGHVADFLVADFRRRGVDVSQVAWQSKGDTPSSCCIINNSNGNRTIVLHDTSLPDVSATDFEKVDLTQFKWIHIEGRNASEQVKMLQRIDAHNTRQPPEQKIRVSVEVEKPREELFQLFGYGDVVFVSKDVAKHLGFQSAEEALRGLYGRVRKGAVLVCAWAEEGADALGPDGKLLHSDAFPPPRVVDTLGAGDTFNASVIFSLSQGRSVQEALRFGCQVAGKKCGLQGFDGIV
Assay: Binding affinity to full length recombinant human biotin-labeled KHK by SPR assay
pKd: −log10 of the molar value.
Measurement label: pKd

See these solved cases before continuing.
INSERT INTO results (test_smiles, measurement_label, val) VALUES
  ('Oc1nc2ccccc2nc1C(F)(F)F', 'pKd', 4.36),
  ('Cc1cc(C)c(C#N)c(N2CCOCC2)n1', 'pKd', 4.21);

[I] Cc1c[nH]c2ncnc(N3CCC[C@@H](CO)C3)c12
[II] N#Cc1cc(F)c(N)nc1Cl
Query string: Between I and II , which one shows the smaller pKd number? Lab log: write the label of the selected item as the result.
Result string: II
(II: 3.99, I: 4.70)

* * *

Experiment: Apparent clearance in human liver microsomes
Assay type: ADME, microsome
Conditions: read-out: CLH(app)
Measurement label: microsomal CLint (µL/min/mg)

[a] C[C@]1(O)CCN(c2nc(N3CCN(CCO)CC3)cc(C(F)(F)F)c2C#N)C1
[b] CCc1cc2nc(C(F)(F)F)c(C#N)c(N3CCC(C)(O)C3)c2[nH]1 (racemic)
Query string: Please tell me which of the two, a or b , has the higher reported microsomal CLint value. Answer by quoting the chosen item's label.
Result string: b

* * *

Molecular target: UniProtKB Q02974
Sequence (Q02974 whole entry): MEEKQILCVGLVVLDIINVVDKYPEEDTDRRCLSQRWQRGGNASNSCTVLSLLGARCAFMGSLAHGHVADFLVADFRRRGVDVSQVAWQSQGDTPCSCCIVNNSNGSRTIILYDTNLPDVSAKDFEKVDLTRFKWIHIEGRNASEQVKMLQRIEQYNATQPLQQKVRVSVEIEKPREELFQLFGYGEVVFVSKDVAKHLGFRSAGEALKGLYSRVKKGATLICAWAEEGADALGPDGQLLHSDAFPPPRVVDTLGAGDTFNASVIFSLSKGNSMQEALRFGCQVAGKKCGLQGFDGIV
Test: Inhibition of recombinant rat N-terminal His-tagged KHK expressed in Escherichia coli BL21(DE3) using fructose as substrate incubated for 30 mins followed by ATP addition measured for 30 mins by pyruvate kinase-lactate dehydrogenase coupled enzyme assay
Details: read-out: IC50
Measurement label: IC50 (nM)

[1] C[C@]1(O)CCN(c2c(C#N)c(C(F)(F)F)nc3cc[nH]c23)C1
[2] C[C@]1(O)CCN(c2nc(N3C[C@H](O)[C@@H](O)C3)cc(C(F)(F)F)c2C#N)C1
Query string: Given 1 and given 2 , which shows the smaller recorded IC50? Which one? Tell me its label.
Result string: 2
